System: HL-60(TB)
procedure-text: Anticancer activity against human HL-60(TB) cells after 48 hrs by sulforhodamine B assay
Type: functional
protocol-conditions: HL-60, 48 h
Field: label. Allowed values: 1 (GI50 < 70 µM) or 0 (GI50 >= 70 µM).

O=c1[nH]cc(F)c(=O)[nH]1 :: 1
O=C(Nc1nccs1)NC(C(F)(F)F)C(F)(F)F :: 0
CNC(=O)Nc1ccccc1 :: 0
O=C(Nc1nc2ccccc2s1)NC(C(F)(F)F)C(F)(F)F :: 1
CC(NC(=O)Nc1nc2ccccc2s1)(C(F)(F)F)C(F)(F)F :: 0

###

Tested on: CCRF-CEM
procedure-text: Anticancer activity against human CCRF-CEM cells after 48 hrs by sulforhodamine B assay
Type: functional
The following compounds are listed with their measured GI50 values.
endpoint-label: GI50

CCC(NC(=O)Nc1nc2ccccc2s1)(C(F)(F)F)C(F)(F)F :: 23.4 µM
O=C(Nc1nc2ccccc2s1)NC(C(F)(F)F)C(F)(F)F :: 33.1 µM
CNC(=O)Nc1ccccc1 :: 100 µM
O=c1[nH]cc(F)c(=O)[nH]1 :: 9.77 µM
CCC(NC(=O)Nc1nccs1)(C(F)(F)F)C(F)(F)F :: 19.5 µM
CC(NC(=O)Nc1nc2ccccc2s1)(C(F)(F)F)C(F)(F)F :: 27.5 µM

###

Test system: SF-268
procedure-text: Anticancer activity against human SF268 cells after 48 hrs by sulforhodamine B assay
Type: functional
protocol-conditions: SF-268, 48 h
endpoint-label: GI50 (µM)

CNC(=O)Nc1ccccc1 :: 100
O=C(Nc1nc2ccccc2s1)NC(C(F)(F)F)C(F)(F)F :: 29.5
CCC(NC(=O)Nc1nccs1)(C(F)(F)F)C(F)(F)F :: 60.3
O=C(Nc1nccs1)NC(C(F)(F)F)C(F)(F)F :: 29.5
CCC(NC(=O)Nc1nc2ccccc2s1)(C(F)(F)F)C(F)(F)F :: 17
CC(NC(=O)Nc1nc2ccccc2s1)(C(F)(F)F)C(F)(F)F :: 29.5
O=c1[nH]cc(F)c(=O)[nH]1 :: 1.58

###

The following compounds are listed with their measured log10 of GI50 values.
Test system: COLO 205
procedure-text: Anticancer activity against human COLO205 cells after 48 hrs by sulforhodamine B assay
Assay type: functional
protocol-conditions: COLO 205, 48 h
endpoint-label: log10 of GI50 (log10 of the value in µM)

O=c1[nH]cc(F)c(=O)[nH]1 :: -0.80
O=C(Nc1nccs1)NC(C(F)(F)F)C(F)(F)F :: 1.72
CCC(NC(=O)Nc1nccs1)(C(F)(F)F)C(F)(F)F :: 1.87
CC(NC(=O)Nc1nc2ccccc2s1)(C(F)(F)F)C(F)(F)F :: 1.58
O=C(Nc1nc2ccccc2s1)NC(C(F)(F)F)C(F)(F)F :: 1.25
CNC(=O)Nc1ccccc1 :: 2.00
CCC(NC(=O)Nc1nc2ccccc2s1)(C(F)(F)F)C(F)(F)F :: 1.21

###

Test system: MDA-N
procedure-text: Anticancer activity against human MDA-N cells after 48 hrs by sulforhodamine B assay
Assay type: functional
The following compounds are listed with their measured GI50 values.
endpoint-label: GI50 (µM)

CNC(=O)Nc1ccccc1 :: 100
O=C(Nc1nc2ccccc2s1)NC(C(F)(F)F)C(F)(F)F :: 23.4
CC(NC(=O)Nc1nc2ccccc2s1)(C(F)(F)F)C(F)(F)F :: 97.7
CCC(NC(=O)Nc1nccs1)(C(F)(F)F)C(F)(F)F :: 60.3
CCC(NC(=O)Nc1nc2ccccc2s1)(C(F)(F)F)C(F)(F)F :: 18.6

###

The following compounds are listed with their measured GI50 values.
Test system: OVCAR-5
procedure-text: Anticancer activity against human OVCAR5 cells after 48 hrs by sulforhodamine B assay
Format: functional
protocol-conditions: OVCAR-5, 48 h
endpoint-label: GI50 (µM)

CC(NC(=O)Nc1nc2ccccc2s1)(C(F)(F)F)C(F)(F)F :: 81.3
O=c1[nH]cc(F)c(=O)[nH]1 :: 11
CNC(=O)Nc1ccccc1 :: 100
CCC(NC(=O)Nc1nc2ccccc2s1)(C(F)(F)F)C(F)(F)F :: 19.5
O=C(Nc1nc2ccccc2s1)NC(C(F)(F)F)C(F)(F)F :: 27.5
O=C(Nc1nccs1)NC(C(F)(F)F)C(F)(F)F :: 91.2

###

procedure-text: Anticancer activity against human Hs 578T cells after 48 hrs by sulforhodamine B assay
Format: functional
endpoint-label: GI50 (µM)

O=c1[nH]cc(F)c(=O)[nH]1 :: 9.77
CCC(NC(=O)Nc1nc2ccccc2s1)(C(F)(F)F)C(F)(F)F :: 21.4
O=C(Nc1nccs1)NC(C(F)(F)F)C(F)(F)F :: 22.4
O=C(Nc1nc2ccccc2s1)NC(C(F)(F)F)C(F)(F)F :: 26.9
CC(NC(=O)Nc1nc2ccccc2s1)(C(F)(F)F)C(F)(F)F :: 18.6
CCC(NC(=O)Nc1nccs1)(C(F)(F)F)C(F)(F)F :: 52.5
CNC(=O)Nc1ccccc1 :: 100

###

The following compounds are listed with their measured GI50 values.
System: A498
procedure-text: Anticancer activity against human A498 cells after 48 hrs by sulforhodamine B assay
Type: functional
protocol-conditions: A498, 48 h
endpoint-label: GI50 (µM)

CCC(NC(=O)Nc1nc2ccccc2s1)(C(F)(F)F)C(F)(F)F :: 13.5
O=c1[nH]cc(F)c(=O)[nH]1 :: 0.398
O=C(Nc1nccs1)NC(C(F)(F)F)C(F)(F)F :: 95.5
CCC(NC(=O)Nc1nccs1)(C(F)(F)F)C(F)(F)F :: 46.8
CNC(=O)Nc1ccccc1 :: 100
O=C(Nc1nc2ccccc2s1)NC(C(F)(F)F)C(F)(F)F :: 20

###

The following compounds are listed with their measured GI50 values.
System: NCI-H322M
procedure-text: Anticancer activity against human NCI-H322M cells after 48 hrs by sulforhodamine B assay
Format: functional
endpoint-label: GI50 (µM)

O=C(Nc1nc2ccccc2s1)NC(C(F)(F)F)C(F)(F)F :: 18.2
O=C(Nc1nccs1)NC(C(F)(F)F)C(F)(F)F :: 87.1
CCC(NC(=O)Nc1nc2ccccc2s1)(C(F)(F)F)C(F)(F)F :: 25.7
CC(NC(=O)Nc1nc2ccccc2s1)(C(F)(F)F)C(F)(F)F :: 26.9
O=c1[nH]cc(F)c(=O)[nH]1 :: 0.178
CNC(=O)Nc1ccccc1 :: 100

###

System: MOLT-4
procedure-text: Anticancer activity against human MOLT4 cells after 48 hrs by sulforhodamine B assay
Assay type: functional
protocol-conditions: MOLT-4, 48 h
endpoint-label: log10 GI50 (log10 of the value in µM)

CCC(NC(=O)Nc1nc2ccccc2s1)(C(F)(F)F)C(F)(F)F :: 1.47
O=C(Nc1nccs1)NC(C(F)(F)F)C(F)(F)F :: 1.61
O=c1[nH]cc(F)c(=O)[nH]1 :: -0.45
CCC(NC(=O)Nc1nccs1)(C(F)(F)F)C(F)(F)F :: 1.49
O=C(Nc1nc2ccccc2s1)NC(C(F)(F)F)C(F)(F)F :: 1.47
CC(NC(=O)Nc1nc2ccccc2s1)(C(F)(F)F)C(F)(F)F :: 1.26
CNC(=O)Nc1ccccc1 :: 2.00

###

System: SK-MEL-5
procedure-text: Anticancer activity against human SK-MEL-5 cells after 48 hrs by sulforhodamine B assay
Assay type: functional
protocol-conditions: SK-MEL-5, 48 h
Field: label. Allowed values: criterion met (GI50 < 40 µM) or criterion not met (GI50 >= 40 µM).

O=c1[nH]cc(F)c(=O)[nH]1 :: criterion met
CCC(NC(=O)Nc1nccs1)(C(F)(F)F)C(F)(F)F :: criterion met
CCC(NC(=O)Nc1nc2ccccc2s1)(C(F)(F)F)C(F)(F)F :: criterion met
CC(NC(=O)Nc1nc2ccccc2s1)(C(F)(F)F)C(F)(F)F :: criterion not met
CNC(=O)Nc1ccccc1 :: criterion not met
O=C(Nc1nc2ccccc2s1)NC(C(F)(F)F)C(F)(F)F :: criterion met

###

Tested on: OVCAR-4
procedure-text: Anticancer activity against human OVCAR4 cells after 48 hrs by sulforhodamine B assay
Assay type: functional
protocol-conditions: OVCAR-4, 48 h
The following compounds are listed with their measured GI50 values.
endpoint-label: GI50 (µM)

O=C(Nc1nc2ccccc2s1)NC(C(F)(F)F)C(F)(F)F :: 28.8
CNC(=O)Nc1ccccc1 :: 100
CC(NC(=O)Nc1nc2ccccc2s1)(C(F)(F)F)C(F)(F)F :: 21.9
O=C(Nc1nccs1)NC(C(F)(F)F)C(F)(F)F :: 39.8
CCC(NC(=O)Nc1nc2ccccc2s1)(C(F)(F)F)C(F)(F)F :: 18.6
CCC(NC(=O)Nc1nccs1)(C(F)(F)F)C(F)(F)F :: 83.2
O=c1[nH]cc(F)c(=O)[nH]1 :: 4.47
